system: tobacco mosaic virus (TMV); assay: Anti-TMV in vivo inactivation; design: species or system tobacco mosaic virus (host Nicotiana tabacum L.cv.Xanthi NN); settings: treatment dose 100 μg/mL
Reported values of Relative inhibition rate (%) In vivo inactivation for individual entries
REPORTED_ENDPOINT: Relative inhibition rate (%) In vivo inactivation

INSERT INTO measurements (mol, units, value_reported) VALUES
  ('CC(=NNC(=O)[C@@H]1Cc2c([nH]c3ccccc23)[C@H](C)N1)c1ccccc1', '%', 13.6),
  ('C[C@@H]1N[C@H](C(=O)NN=Cc2cccs2)Cc2c1[nH]c1ccccc21', '%', 29.6),
  ('COc1cccc(C=NNC(=O)[C@@H]2Cc3c([nH]c4ccccc34)[C@H](C)N2)c1', '%', 22.1),
  ('COc1ccc(C=NNC(=O)[C@@H]2Cc3c([nH]c4ccccc34)[C@H](C)N2)cc1', '%', 30.4);
